tested on: M. tuberculosis H37Rv poly-g-GFP; assay: microbe, parasite or virus in culture; assay type: cell-based; conditions: Mycobacterium tuberculosis, H37RV, 240 h, read-out: IC90 Mtb H37Rv-poly-g-GFP, fluorescence read-out
Decision: IC90 beneath 8 µg/mL gives YES; IC90 meeting or exceeding 8 µg/mL gives NO.

[
  {
    "Compound": "CC[C@H]1/C=C(\\C)[C@@H](O)C/C=C/C=C(\\CNCc2nnc(-c3ccccc3)o2)C(=O)O[C@H]([C@@H](C)O)C/C=C(C)/C=C(\\C)[C@@H]1O[C@@H]1OC(C)(C)[C@@H](OC(=O)C(C)C)[C@H](O)[C@@H]1O",
    "Study System": "M. tuberculosis H37Rv poly-g-GFP",
    "Class": "YES"
  },
  {
    "Compound": "CC[C@H]1/C=C(\\C)[C@@H](O)C/C=C/C=C(\\CNc2nc3c(s2)CCCC3)C(=O)O[C@H]([C@@H](C)O)C/C=C(C)/C=C(\\C)[C@@H]1O[C@@H]1OC(C)(C)[C@@H](OC(=O)C(C)C)[C@H](O)[C@@H]1O",
    "Study System": "M. tuberculosis H37Rv poly-g-GFP",
    "Class": "NO"
  },
  {
    "Compound": "CC[C@H]1/C=C(\\C)[C@@H](O)C/C=C/C=C(\\CNCc2cc(-c3ccccc3)no2)C(=O)O[C@H]([C@@H](C)O)C/C=C(C)/C=C(\\C)[C@@H]1O[C@@H]1OC(C)(C)[C@@H](OC(=O)C(C)C)[C@H](O)[C@@H]1O",
    "Study System": "M. tuberculosis H37Rv poly-g-GFP",
    "Class": "NO"
  },
  {
    "Compound": "CC[C@H]1/C=C(\\C)[C@@H](O)C/C=C/C=C(\\CNc2nc3c(s2)CN(C)CC3)C(=O)O[C@H]([C@@H](C)O)C/C=C(C)/C=C(\\C)[C@@H]1O[C@@H]1OC(C)(C)[C@@H](OC(=O)C(C)C)[C@H](O)[C@@H]1O",
    "Study System": "M. tuberculosis H37Rv poly-g-GFP",
    "Class": "NO"
  },
  {
    "Compound": "CCc1c(Cl)c(O)c(Cl)c(O)c1C(=O)O[C@H]1[C@H](O)[C@H](OC)[C@H](OC/C2=C\\C=C\\C[C@H](O)/C(C)=C/[C@H](CC)[C@@H](O[C@@H]3OC(C)(C)[C@@H](OC(=O)C(C)C)[C@H](O)[C@@H]3O)/C(C)=C/C(C)=C/C[C@@H]([C@@H](C)O)OC2=O)O[C@@H]1C [Fdx, fidaxomicin, reference compound]",
    "Study System": "M. tuberculosis H37Rv poly-g-GFP",
    "Class": "YES"
  },
  {
    "Compound": "CC[C@H]1/C=C(\\C)[C@@H](O)C/C=C/C=C(\\CN2CCN(c3ccncc3)CC2)C(=O)O[C@H]([C@@H](C)O)C/C=C(C)/C=C(\\C)[C@@H]1O[C@@H]1OC(C)(C)[C@@H](OC(=O)C(C)C)[C@H](O)[C@@H]1O",
    "Study System": "M. tuberculosis H37Rv poly-g-GFP",
    "Class": "NO"
  },
  {
    "Compound": "CC[C@H]1/C=C(\\C)[C@@H](O)C/C=C/C=C(\\CNc2nccs2)C(=O)O[C@H]([C@@H](C)O)C/C=C(C)/C=C(\\C)[C@@H]1O[C@@H]1OC(C)(C)[C@@H](OC(=O)C(C)C)[C@H](O)[C@@H]1O",
    "Study System": "M. tuberculosis H37Rv poly-g-GFP",
    "Class": "NO"
  },
  {
    "Compound": "CC[C@H]1/C=C(\\C)[C@@H](O)C/C=C/C=C(\\CN2CCN(CCOc3ncccn3)CC2)C(=O)O[C@H]([C@@H](C)O)C/C=C(C)/C=C(\\C)[C@@H]1O[C@@H]1OC(C)(C)[C@@H](OC(=O)C(C)C)[C@H](O)[C@@H]1O",
    "Study System": "M. tuberculosis H37Rv poly-g-GFP",
    "Class": "NO"
  },
  {
    "Compound": "CC[C@H]1/C=C(\\C)[C@@H](O)C/C=C/C=C(\\CNCc2nnc(-c3cc(Cl)cc(Cl)c3O)o2)C(=O)O[C@H]([C@@H](C)O)C/C=C(C)/C=C(\\C)[C@@H]1O[C@@H]1OC(C)(C)[C@@H](OC(=O)C(C)C)[C@H](O)[C@@H]1O",
    "Study System": "M. tuberculosis H37Rv poly-g-GFP",
    "Class": "NO"
  },
  {
    "Compound": "CC[C@H]1/C=C(\\C)[C@@H](O)C/C=C/C=C(\\CNCc2nnc(-c3ccccc3)s2)C(=O)O[C@H]([C@@H](C)O)C/C=C(C)/C=C(\\C)[C@@H]1O[C@@H]1OC(C)(C)[C@@H](OC(=O)C(C)C)[C@H](O)[C@@H]1O",
    "Study System": "M. tuberculosis H37Rv poly-g-GFP",
    "Class": "YES"
  },
  {
    "Compound": "CC[C@H]1/C=C(\\C)[C@@H](O)C/C=C/C=C(\\CNCc2nc3ccccc3s2)C(=O)O[C@H]([C@@H](C)O)C/C=C(C)/C=C(\\C)[C@@H]1O[C@@H]1OC(C)(C)[C@@H](OC(=O)C(C)C)[C@H](O)[C@@H]1O",
    "Study System": "M. tuberculosis H37Rv poly-g-GFP",
    "Class": "NO"
  },
  {
    "Compound": "CC[C@H]1/C=C(\\C)[C@@H](O)C/C=C/C=C(\\CNCc2nnc(-c3cccc(O)c3O)o2)C(=O)O[C@H]([C@@H](C)O)C/C=C(C)/C=C(\\C)[C@@H]1O[C@@H]1OC(C)(C)[C@@H](OC(=O)C(C)C)[C@H](O)[C@@H]1O",
    "Study System": "M. tuberculosis H37Rv poly-g-GFP",
    "Class": "YES"
  },
  {
    "Compound": "CC[C@H]1/C=C(\\C)[C@@H](O)C/C=C/C=C(\\CNCc2nnc(C)o2)C(=O)O[C@H]([C@@H](C)O)C/C=C(C)/C=C(\\C)[C@@H]1O[C@@H]1OC(C)(C)[C@@H](OC(=O)C(C)C)[C@H](O)[C@@H]1O",
    "Study System": "M. tuberculosis H37Rv poly-g-GFP",
    "Class": "NO"
  },
  {
    "Compound": "CC[C@H]1/C=C(\\C)[C@@H](O)C/C=C/C=C(\\CN2CCN(c3ccccc3)CC2)C(=O)O[C@H]([C@@H](C)O)C/C=C(C)/C=C(\\C)[C@@H]1O[C@@H]1OC(C)(C)[C@@H](OC(=O)C(C)C)[C@H](O)[C@@H]1O",
    "Study System": "M. tuberculosis H37Rv poly-g-GFP",
    "Class": "NO"
  }
]
